Tested on: SKBR3
assayName: relative cell number vs DMSO control (72 h) (% of DMSO); higher = less growth inhibition (more cells)
studyConditions: sgRNA knockout: sgNT, 100 nM
Outcome label depends on relative cell number relative to 70: at/above gives y, below gives n.

Check out these entries, answers already filled in.
Is it the case that Nc1nc(Cl)nc2c1ncn2[C@@H]1O[C@H](CO)[C@@H](O)[C@@H]1F has relative cell number reaching or exceeding 70?
n

Okay, and COc1ccc(-c2ccc3c(N4CCOCC4)nc(N4C[C@@H](C)O[C@@H](C)C4)nc3n2)cc1CO ?
y

Moving on to the next compound: CN(C)/N=N/c1[nH]cnc1C(N)=O
y

Next item in the queue.
Evaluate OCc1ccc(-c2ccc(-c3ccc(CO)s3)o2)s1 : relative cell number at minimum 70?
n

###

System: SKBR3
assayName: relative cell number vs DMSO control (72 h) (% of DMSO); higher = less growth inhibition (more cells)
studyConditions: sgRNA knockout: sgNT, 10 nM
experimentalEndpoint: relative cell number

Which relative cell number reading was recorded for the molecule CC(=O)c1c(C)c2cnc(Nc3ccc(N4CCNCC4)cn3)nc2n(C2CCCC2)c1=O ?
90.3

What do you have for CN1C(=O)C(Cc2c[nH]c3ccccc23)NC1=S (stereo not given) ?
89.8

Dear reader, for each entry below, please note its relative cell number.
1. COc1cc(CCc2cc(NC(=O)c3ccc(N4CC(C)NC(C)C4)cc3)n[nH]2)cc(OC)c1 (stereo not given)
2. C=CC(=O)Nc1cc2c(Nc3ccc(F)c(Cl)c3)ncnc2cc1OCCCN1CCOCC1
3. COc1cc([C@@H]2c3cc4c(cc3[C@@H](O[C@@H]3O[C@@H]5CO[C@@H](c6cccs6)O[C@H]5[C@H](O)[C@H]3O)[C@H]3COC(=O)[C@H]23)OCO4)cc(OC)c1O [Teniposide]
4. CN(C)C/C=C/C(=O)Nc1cc2c(Nc3ccc(F)c(Cl)c3)ncnc2cc1O[C@H]1CCOC1
5. CCOC(=O)CCNc1cc(N2CCc3ccccc3CC2)nc(-c2ccccn2)n1
6. O=C1NC(=O)/C(=C/c2ccc3nccc(-c4ccncc4)c3c2)S1
7. CCN1CCN(c2ccc(Nc3cc(N(C)C(=O)Nc4c(Cl)c(OC)cc(OC)c4Cl)ncn3)cc2)CC1

[62.3, 81.6, 101, 85.2, 94.1, 112, 99.1]

###

System: SKBR3
assayName: relative cell number vs DMSO control (72 h) (% of DMSO); higher = less growth inhibition (more cells)
studyConditions: sgRNA knockout: sgNT, 10 nM
Could you please report measured relative cell number for the items listed next?
Give bare numbers.

Examples from the recorded data:
What value of relative cell number has been reported for the following compound? O=C(O)CCCc1ccc(N(CCCl)CCCl)cc1
107

Another compound to check: C#Cc1cccc(Nc2ncnc3cc(OCCOC)c(OCCOC)cc23)c1
124

And for CC(C)OC(=O)C1=CN(C(=O)c2ccc(F)c(F)c2)CC(C)(C)c2c1[nH]c1ccccc21 ?
81.3

Similarly, Cc1ccccc1-n1c(Cn2cnc3c(N)ncnc32)nc2cccc(C)c2c1=O ?
104

Param item: C[C@@H](Oc1cc(-n2cnc3ccc(CN4CCN(C)CC4)cc32)sc1C(N)=O)c1ccccc1C(F)(F)F
13.6

Thanks! And CC(C)(C#N)c1cc(Cn2cncn2)cc(C(C)(C)C#N)c1 ?
90.3

Moving on to Cc1cnc(Nc2ccc(OCCN3CCCC3)cc2)nc1Nc1cccc(S(=O)(=O)NC(C)(C)C)c1
89

Now the same for Cc1c(Cn2c(C)nc3c(C(=O)O)cc(N4CCOCC4)cc32)cccc1C(F)(F)F
137

// batch mode: one relative cell number value per listed entry
1. CN1CCc2c(c3ccccc3n2Cc2ccc(C(=O)NO)cc2)C1
2. COc1cc2nccc(Oc3ccc(NC(=O)NC4CC4)c(Cl)c3)c2cc1C(N)=O
3. Cc1ccc2c(c1)C(=O)C1(O)CCN(c3ccccc3)C1=N2 (stereo not drawn)
4. CC/C(=C(\c1ccc(O)cc1)c1ccc(OCCN(C)C)cc1)c1ccccc1 [4-Hydroxytamoxifen]

104
111
114
104

Hi team, please reply with relative cell number for each item in this list.
1. CN(Cc1cnc2nc(N)nc(N)c2n1)c1ccc(C(=O)N[C@@H](CCC(=O)O)C(=O)O)cc1 [Methotrexate]
2. O=c1cc(-c2cccc3c2Sc2ccccc2S3)oc(N2CCOCC2)c1
3. CC(C)n1cnc2c(NCCc3ccc(O)cc3)nc(-c3csc4ccccc34)nc21
4. C[C@@H]1CN(CC(=O)Nc2ccc3c(c2)Cc2cccc(-c4cc(=O)cc(N5CCOCC5)o4)c2S3)C[C@H](C)O1
5. C=C(C)[C@@H]1CC[C@]2(C(=O)O)CC[C@]3(C)[C@H](CC[C@@H]4[C@@]5(C)CC[C@H](O)C(C)(C)[C@@H]5CC[C@]43C)[C@@H]12

1: 116; 2: 85.1; 3: 103; 4: 86.5; 5: 76.3

Hi there! I need relative cell number for each item below, if you can.
1. CCOC(=O)[C@@]1(CCCCCCOc2ccc(Cl)cc2)CO1
2. C[C@]12CC[C@H](O)CC1=CC[C@@H]1[C@@H]2CC[C@]2(C)C(c3cccnc3)=CC[C@@H]12
3. Cc1cc(N2CCOCC2)cc2[nH]c(-c3c(NC[C@@H](O)c4cccc(Cl)c4)cc[nH]c3=O)nc12
4. CCOC(=O)c1ccc(N2NC(=O)C(=Cc3ccc([N+](=O)[O-])o3)C2=O)cc1

80.7
118
107
106

###

Task for the reader: assign each of the following compounds its reported relative cell number.
System: BT-20
assayName: relative cell number vs DMSO control (72 h) (% of DMSO); higher = less growth inhibition (more cells)
studyConditions: sgRNA knockout: sgNT, 1000 nM
Numbers only.

So what does the record say about relative cell number for CNC(=O)c1cc(Oc2ccc(NC(=O)Nc3ccc(Cl)c(C(F)(F)F)c3)c(F)c2)ccn1 ?
116

Same read-out for OCCn1cc(-c2ccc3c(c2)CC/C3=N\O)c(-c2ccncc2)n1 ?
130

Now give it for Cc1onc(-c2ccccc2)c1-c1ccc(S(N)(=O)=O)cc1 too.
102

For each listed entry, give its relative cell number.
1. COc1nc(N)nc2c1ncn2[C@@H]1O[C@H](CO)[C@@H](O)[C@@H]1O
2. CN1CCN(c2ccc(C(=O)Nc3n[nH]c4ccc(Cc5cc(F)cc(F)c5)cc34)c(NC3CCOCC3)c2)CC1
3. CCOC(=O)c1ccc(N2NC(=O)C(=Cc3ccc([N+](=O)[O-])o3)C2=O)cc1
4. Nc1nc(OCc2cc(Br)cs2)c2[nH]cnc2n1
5. S=c1nc[nH]c2nc[nH]c12

1. 94.9
2. 92.9
3. 103
4. 89.5
5. 85.3

###

Tested on: BT-20
assayName: relative cell number vs DMSO control (72 h) (% of DMSO); higher = less growth inhibition (more cells)
studyConditions: sgRNA knockout: sgNT, 100 nM
Hi, to clarify the labels: criterion met covers relative cell number from 80 upward, criterion not met covers anything below 80.

Does relative cell number meet or surpass 80 for CC[C@@]1(O)C(=O)OCc2c1cc1n(c2=O)Cc2cc3c(CN(C)C)c(O)ccc3nc2-1 ?
criterion not met

Others:
Does CO[C@H]1C[C@@H]2CC[C@@H](C)[C@@](O)(O2)C(=O)C(=O)N2CCCC[C@H]2C(=O)O[C@H]([C@H](C)C[C@@H]2CC[C@@H](OCCO)[C@H](OC)C2)CC(=O)[C@H](C)/C=C(\C)[C@@H](O)[C@@H](OC)C(=O)[C@H](C)C[C@H](C)/C=C/C=C/C=C/1C have a reported relative cell number of at least 80?
criterion not met

Now give it for O=P1(N(CCCl)CCCl)NCCCO1 (stereo unspecified) [Cyclophosphamide] too.
criterion met

###

System: BT-20
assayName: relative cell number vs DMSO control (72 h) (% of DMSO); higher = less growth inhibition (more cells)
studyConditions: sgRNA knockout: sgNT, 100 nM
experimentalEndpoint: relative cell number
Numbers only.

Report relative cell number for C[C@]1(O)C[C@@H](c2nc(-c3ccc4ccc(-c5ccccc5)nc4c3)c3c(N)nccn32)C1 tested on BT-20.
121

Then CC(=O)Nc1cccc(-n2c(=O)n(C3CC3)c(=O)c3c(Nc4ccc(I)cc4F)n(C)c(=O)c(C)c32)c1 ?
65.2

Then what about the compound O=C(O)CC[C@H]1CC[C@@](c2cc(F)ccc2F)(S(=O)(=O)c2ccc(Cl)cc2)CC1 ?
112

Parameters: items (list). Returns: relative cell number for each item.
1. COc1cc2nccc(Oc3ccc(NC(=O)NC4CC4)c(Cl)c3)c2cc1C(N)=O
2. CC(=O)Nc1nc(C)c(S(=O)(=O)Nc2ccc(C(O)(C(F)(F)F)C(F)(F)F)cc2)s1
3. CC(C)C[C@H](NC(=O)CNC(=O)c1cc(Cl)ccc1Cl)B(O)O
4. C[C@]12CC[C@H](O)CC1=CC[C@@H]1[C@@H]2CC[C@]2(C)C(c3cccnc3)=CC[C@@H]12

1. 97.5
2. 92.4
3. 91
4. 118
